B1: TPR t1 (parent)
chain: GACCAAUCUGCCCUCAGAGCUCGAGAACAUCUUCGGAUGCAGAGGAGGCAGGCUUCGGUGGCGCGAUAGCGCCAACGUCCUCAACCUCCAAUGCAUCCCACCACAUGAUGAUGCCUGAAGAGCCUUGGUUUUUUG

# Variants of: B1
# Procedure details: polymerase ribozyme fitness, log enrichment relative to wild type (log ratio); higher = more active; in vitro selection for triplet polymerase activity
Definition: the class of an entry is the range in lower (below -4), middle (-4 to below -2), upper (-2 or more) that contains its polymerase ribozyme fitness (log ratio).

Consider G42C C49U C79A C102G G120A . To which polymerase ribozyme fitness (log ratio) class does it belong? lower

# classify by polymerase ribozyme fitness (log ratio) band: G58C U96A C97A C104A G120U G128C lower

Class label required: C28U A83C middle

Sort into band: C49G G120U C124A G135U upper

Entry C40A A41U A43U G44C belongs to which category? middle

Which polymerase ribozyme fitness (log ratio) category applies to A5U U54C G69A U112C here? upper

Which class holds U7A U14G G17C C82G C102A C114G ? lower

Which band does A27C C72G U112C G120C U126C U131A fall in? lower

State the band of U59A C70U upper

Textbook exercise: identify the category of the variant given here, A29U A83U C86A C114A A118U , according to its measured value. middle

Category of C4U G10C C20A G48U A119G , please. middle

Bin? C13A G52A U59C G113A middle

For the record C102A C123G , report the class its polymerase ribozyme fitness (log ratio) corresponds to. upper

Which category fits this record: C8A C56U upper

State the band of U33A C72G A74C G127C lower

Form field 'band' for U54G A103U lower

Kindly state the category for this variant: C11U G120C upper
